Consider the following compounds and their measured normalized growth readings.
- Experimental protocol: chemical genetic growth profiling, strain panel (AID 1159580);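 further: tested at 20 µM; growth read once vehicle control cultures reached saturation at 30 °C; 1 = growth at the plate median or of vehicle wells; lower values mean less growth of the strain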
- Study conditions: S. cerevisiae deletion strains, growth OD, locus YLR370C, strain arc18, stronger effect = lower value
About 2,000 (36%) of roughly 5,500 compounds were called active. Roughly 18% stayed inconclusive and do not appear here. The list shows a part of the results.
Parameter measured: normalized growth

CC(C)COCC(CN(Cc1ccccc1)c1ccccc1)N1CCCC1 (stereo not given)
1.04
COc1cc(OC)c2c(=O)c(-c3ccccc3)coc2c1
0.939
CCCC(=O)O[C@]1(C(=O)CO)CCC2[C@@H]3CCC4=CC(=O)CC[C@]4(C)C3[C@@H](O)C[C@@]21C (stereo not given in full)
1.01
C=CCSCC1Nc2cc(Cl)c(S(N)(=O)=O)cc2S(=O)(=O)N1 (stereo not given)
1
CC1(C)NC(=O)N(c2ccc([N+](=O)[O-])c(C(F)(F)F)c2)C1=O
0.971

---

- Experimental protocol: chemical genetic growth profiling, strain panel (AID 1159580)
- Study conditions: S. cerevisiae deletion strains, growth OD, locus YKR026C, strain gcn3, stronger effect = lower value
The whole screen tested about 5,500 compounds, of which about 2,000 (36%) were called active. Not shown: some 18% with an inconclusive outcome. The list shows a part of the results.
Consider the following compounds and their measured normalized growth readings.
Parameter measured: normalized growth

CC(C)(C)CC(C)(C)c1ccc(O)c(Cc2ccc(Cl)cc2Cl)c1
1.02
CCC(C)(C)C(=O)O[C@H]1C[C@@H](C)C=C2C=C[C@H](C)[C@H](CC[C@@H]3C[C@@H](O)CC(=O)O3)[C@H]21
1.01
OCc1ccccc1O
1.02
CC(=O)OCC(OC(C)=O)C(OC(C)=O)C(OC(C)=O)C(OC(C)=O)C(COC(C)=O)OC(C)=O (stereo not given)
0.999
CC[C@H](C)C(=O)O[C@H]1CCC=C2C=C[C@H](C)C(CCC3C[C@@H](O)CC(=O)O3)[C@H]21 (stereo not given in full)
0.981
C=CCCCCCCCCCCCC(O)CC(O)COC(C)=O (stereo not given) (tested in a mixture with another compound)
0.974
Oc1ccc(Cl)cc1
1.02
CC1(C)O[C@H]2[C@H](O)C[C@](O)(C(N)=O)C[C@H]2O1
1.01
CO/N=C(\C(=O)NC1C(=O)N2C(C(=O)OC(C)OC(C)=O)=C(COC(N)=O)CSC12)c1ccco1 (stereo not given)
0.983
CC1=CC2C(CC1=O)C(C)=CCC2C(C)C (stereo not given)
0.983

---

- Experimental protocol: chemical genetic growth profiling, strain panel (AID 1159580)
- Study conditions: S. cerevisiae deletion strains, growth OD, locus YEL061C, strain CIN8 (second series), stronger effect = lower value
Screen size: about 5,500 compounds; about 2,000 (36%) were called active. Roughly 18% stayed inconclusive and do not appear here. Some of the results follow.
normalized growth under 1 gets t, anything at or over 1 gets f.

Cc1ccc(Cl)c(Nc2ccccc2C(=O)O)c1Cl
t
Nc1ccc(N=Nc2ccccc2)c(N)n1
t
Cc1cccc(Nc2ccccc2C(=O)O)c1C
t
CCCCOC(=O)c1ccc(N)cc1
t
O=C(O)c1ccccc1-c1c2cc(Br)c(=O)cc-2oc2[c]([Hg])c(O)c(Br)cc12
f
O=C1[C@H](CCC(O)c2ccc(F)cc2)[C@@H](c2ccc(O)cc2)N1c1ccc(F)cc1 (stereo partly specified)
t
CC(C)COCC(CN(Cc1ccccc1)c1ccccc1)N1CCCC1 (stereo unspecified)
f
O=C1OC(c2ccc(O)cc2)(c2ccc(O)cc2)c2ccccc21
t

---

- Experimental protocol: chemical genetic growth profiling, strain panel (AID 1159580)
- Study conditions: S. cerevisiae deletion strains, growth OD, locus YHR079C, strain IRE1 (second series), stronger effect = lower value
Hit rate of the full screen: of about 5,500 compounds, about 2,000 (36%) were called active. Another 18% or so got no clear call; they are omitted. The list shows a part of the results.
Parameter measured: normalized growth

OC(Cn1cncn1)(Cn1cncn1)c1ccc(F)cc1F
0.985
NC(=O)c1cccc(N)c1
0.994
C=C1CCC2C(CC2(C)C)C(=C)CC/C1=N\O (stereo unspecified)
0.962
O=C1CC2OCC=C3CN4CC[C@]56c7ccccc7N1C5[C@H]2[C@H]3CC46 (stereo partly specified)
0.997
C=C1CCC2C(CC2(C)C)C(=O)CCC1O (stereo unspecified)
1.01
C=C1CCC(OC(C)=O)/C(C)=C/C[C@@H]2[C@@H]1CC2(C)C (stereo partly specified)
1.02

---

- Experimental protocol: chemical genetic growth profiling, strain panel (AID 1159580)
- Study conditions: S. cerevisiae deletion strains, growth OD, locus YGL167C, strain pmr1, stronger effect = lower value
Out of some 5,500 compounds screened, about 2,000 (36%) were called active. Another 18% or so got no clear call; they are omitted. This is one part of the list.
normalized growth under 1 gets Yes, anything at or over 1 gets No.

COc1cc2occ(-c3ccccc3)c(=O)c2c(OC)c1C
Yes
CCN(CC)C(=O)c1cccc(C)c1
No
CN1C(C(=O)Nc2ccccn2)=C(O)c2ccccc2S1(=O)=O
Yes
C#CCCCCCCCCCCCC(O)CC(O)COC(C)=O (stereo not given)
Yes
CC(C)COCC(CN(Cc1ccccc1)c1ccccc1)N1CCCC1 (stereo not given)
No
Cc1ccc(C)c(OCCCC(C)(C)C(=O)O)c1
Yes

---

- Experimental protocol: chemical genetic growth profiling, strain panel (AID 1159580);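 further: tested at 20 µM; growth read once vehicle control cultures reached saturation at 30 °C; 1 = growth at the plate median or of vehicle wells; lower values mean less growth of the strain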
- Study conditions: S. cerevisiae deletion strains, growth OD, locus YHR027C, strain rpn1, stronger effect = lower value
The whole screen tested about 5,500 compounds, of which about 2,000 (36%) were called active. Inconclusive results (about 18%) are left out. The list shows a part of the results.
Parameter measured: normalized growth

O=C1NC(=O)C(=O)C(=O)N1
0.984
CC(C)NCC(O)COc1cccc2ccccc12 (stereo unspecified)
1.01
CCNC(=O)CC[C@H](N)C(=O)O
1.01
C#CCCCCCCCCCCCC(O)CC(O)COC(C)=O (stereo unspecified)
0.82
CO[C@@]1(NC(=O)CSCC#N)C(=O)N2C(C(=O)O)=C(CSc3nnnn3C)CSC21 (stereo partly specified)
0.98
COC(=O)C[C@H]1C(C)(C)C(=O)[C@@H]2CC3=C(CC[C@]4(C)C3=CC(=O)O[C@H]4c3ccoc3)[C@@]1(C)C2=O
0.994
CC(=O)OCC(OC(C)=O)C(OC(C)=O)C(OC(C)=O)C(OC(C)=O)C(COC(C)=O)OC(C)=O (stereo unspecified)
0.995
C#CCCCCCCCCCCCC(=O)CC(O)COC(C)=O (stereo unspecified)
0.989
CC[N+](CC)(CC)CCOc1cccc(OCC[N+](CC)(CC)CC)c1OCC[N+](CC)(CC)CC
1.01
C#CCCCCCCCCCCCC(O)CC(O)CO (stereo unspecified)
0.984
CC(=O)OCC[C@H](C)CCC=C(C)C
0.99

---

- Experimental protocol: chemical genetic growth profiling, strain panel (AID 1159580);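 further: tested at 20 µM; growth read once vehicle control cultures reached saturation at 30 °C; 1 = growth at the plate median or of vehicle wells; lower values mean less growth of the strain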
- Study conditions: S. cerevisiae deletion strains, growth OD, locus YKL085W, strain MDH1 (second series), stronger effect = lower value
The whole screen tested about 5,500 compounds, of which about 2,000 (36%) were called active. Inconclusive results (about 18%) are left out. Some of the results follow.
Parameter measured: normalized growth

COc1ccc2c(c1)O[C@H]1c3ccc(OC)cc3OC[C@@H]21
0.98
COc1ccc([C@H]2Oc3cc(OC)cc(OC)c3C[C@H]2O)cc1
0.99
Oc1ccc2c(c1)OCC1c3cc4c(cc3OC21)OCO4 (stereo not given)
1.02
CC1(C)OC(=O)C=CC2(C)C1CC(O)C1(C)C2CCC2(C)C(c3ccoc3)OC(=O)C3OC321 (stereo not given)
1
C[N+]1(C)C2CC(OC(=O)[C@@H](CO)c3ccccc3)CC1C1OC12 (stereo not given in full)
1.01

---

- Experimental protocol: chemical genetic growth profiling, strain panel (AID 1159580);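 further: tested at 20 µM; growth read once vehicle control cultures reached saturation at 30 °C; 1 = growth at the plate median or of vehicle wells; lower values mean less growth of the strain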
- Study conditions: S. cerevisiae deletion strains, growth OD, locus YBR229C, strain ROT2, stronger effect = lower value
Among all 5,500 compounds or so, about 2,000 (36%) were called active. Not shown: some 18% with an inconclusive outcome. The list shows a part of the results.
Parameter measured: normalized growth

Cn1c(=O)c2[nH]cnc2n(C)c1=O
0.983
c1ccc(-c2cc3c(ccc4nonc43)nn2)cc1
0.957
COc1ccc2c(c1)CCC(c1ccccc1)=C2c1ccc(OCCN2CCCC2)cc1
0.946
CC(C)NC[C@H](O)COc1cccc2ccccc12
1.01
COc1cc(-c2coc3cc(OC)c(OC)c(OC)c3c2=O)cc(OC)c1OC
1
Cc1onc(-c2c(Cl)cccc2Cl)c1C(=O)OCC(F)(F)F
1.01
N#C/C(=C\c1ccc(Oc2ccccc2)nc1)S(=O)(=O)c1ccccc1
1
CCOC(=O)Cn1c(=O)c(C#N)cn(C(C)C)c1=O
1.01
CC[C@H](C)C(=O)O[C@H]1C[C@@H](C)C=C2C=C[C@H](C)[C@H](CC[C@@H]3C[C@@H](O)CC(=O)O3)[C@H]21
0.944
Nc1ccc(N=Nc2ccc(S(N)(=O)=O)cc2)c2ccccc12
1
CO/N=C(\C(=O)N[C@@H]1C(=O)N2C(C(=O)O)=C(COC(C)=O)CS[C@H]12)c1csc(N)n1
0.954
CO/N=C(\C(=O)N[C@@H]1C(=O)N2C(C(=O)O)=C(CSc3nc(=O)c(O)nn3C)CS[C@H]12)c1csc(N)n1
0.999
COc1cc2occ(-c3ccccc3)c(=O)c2c(OC)c1C
0.959
COc1ccc2c(c1)O[C@H]1c3ccc(OC)cc3OC[C@@H]21
0.975
Cc1ccc(C)c(OCCCC(C)(C)C(=O)O)c1
0.939
Cc1ccc(CC(=O)O)cc1
0.978
OC(CN1CCN(c2nc3ccc(Cl)cc3s2)CC1)CN1CCCN(c2ncc(C(F)(F)F)cc2Cl)CC1 (centres undefined)
0.943
N#C/C(=C\c1cccn1-c1ccc(OC(F)(F)F)cc1)S(=O)(=O)c1ccccc1
1
COc1cc([C@@H]2c3cc4c(c(O)c3C[C@H]3COC(=O)[C@@H]32)OCO4)cc(OC)c1OC
0.985
O=C(Cn1ccnc1[N+](=O)[O-])NCCO
1.01
CC(C)(C)S(=O)(=O)/C(C#N)=C/N1CCCCC1
1.02
CC1=CC2C(CC1=O)C(C)=CCC2C(C)C (centres undefined)
1.01
CCCNC1CCc2nc(N)sc2C1 (centres undefined)
1.01
CC[C@H](C)C(=O)O[C@H]1CCC=C2C=C[C@H](C)C(CCC3C[C@@H](O)CC(=O)O3)[C@H]21 (some centres undefined)
0.983
COc1ccc([C@H]2Oc3cc(OC)cc(OC)c3C[C@H]2O)cc1
1
O=C(O)c1ccccc1-c1c2cc(Br)c(=O)cc-2oc2[c]([Hg])c(O)c(Br)cc12
0.972
O=C1OC(c2ccc(O)cc2)(c2ccc(O)cc2)c2ccccc21
0.997
CC12NC(=O)NC1(C)NC(=O)N2 (centres undefined)
1.01
N#Cc1c(N)oc(-c2ccco2)c1-c1ccco1
0.975
O=C(O)c1cc2cc(Cc3cccnc3)ccc2o1
1.01
CC[N+](CC)(CC)CCOc1cccc(OCC[N+](CC)(CC)CC)c1OCC[N+](CC)(CC)CC
1.01
COC(=O)c1c(-c2c(Cl)cccc2Cl)noc1NC(=O)NN1CCCCC1
1.02
COc1cc(-c2coc3cc(OCc4ccccc4)c(OC)c(O)c3c2=O)cc(OCc2ccccc2)c1OC
0.995
Nc1nc2ncc(=O)[nH]c2c(=O)[nH]1
1
COc1c2ccoc2c(OC)c2oc(=O)ccc12
0.945
CC1(C)C2CC(=O)[C@]3(C)C(CC[C@@]4(C)[C@H](c5ccoc5)OC(=O)[C@H]5O[C@]543)[C@@]2(C)C=C[C@@H]1O (some centres undefined)
1.02
Cc1onc(-c2ccccc2)c1NC(=O)Nc1c(Cl)cccc1Cl
0.983
CCCCOC(=O)c1ccccc1C(=O)OCCCC
0.981
O=C(c1ccc(-c2ccccc2)cc1)c1cc2cc([N+](=O)[O-])ccc2o1
0.993
CSC(=NS(=O)(=O)c1ccccc1)SC
0.979
COc1cc(-c2coc3cc(OCc4ccccc4)c(OC)c(O)c3c2=O)cc(O)c1OC
0.985
O=C1NC(=O)C(=O)C(=O)N1
1.01
CC(=O)c1cnn(-c2ccccc2)c1C
0.984
COc1ccc(CCN2CCC(Nc3nc4ccccc4n3Cc3ccc(F)cc3)CC2)cc1
0.972
